# ASSAYED TARGET: TAO2 (Homo sapiens)
# Construct: screened for activity against several kinases in Jurkat cells; endogenous in cells; host or cells: Jurkat cell lysate
# Sequence (Q9UL54 whole entry): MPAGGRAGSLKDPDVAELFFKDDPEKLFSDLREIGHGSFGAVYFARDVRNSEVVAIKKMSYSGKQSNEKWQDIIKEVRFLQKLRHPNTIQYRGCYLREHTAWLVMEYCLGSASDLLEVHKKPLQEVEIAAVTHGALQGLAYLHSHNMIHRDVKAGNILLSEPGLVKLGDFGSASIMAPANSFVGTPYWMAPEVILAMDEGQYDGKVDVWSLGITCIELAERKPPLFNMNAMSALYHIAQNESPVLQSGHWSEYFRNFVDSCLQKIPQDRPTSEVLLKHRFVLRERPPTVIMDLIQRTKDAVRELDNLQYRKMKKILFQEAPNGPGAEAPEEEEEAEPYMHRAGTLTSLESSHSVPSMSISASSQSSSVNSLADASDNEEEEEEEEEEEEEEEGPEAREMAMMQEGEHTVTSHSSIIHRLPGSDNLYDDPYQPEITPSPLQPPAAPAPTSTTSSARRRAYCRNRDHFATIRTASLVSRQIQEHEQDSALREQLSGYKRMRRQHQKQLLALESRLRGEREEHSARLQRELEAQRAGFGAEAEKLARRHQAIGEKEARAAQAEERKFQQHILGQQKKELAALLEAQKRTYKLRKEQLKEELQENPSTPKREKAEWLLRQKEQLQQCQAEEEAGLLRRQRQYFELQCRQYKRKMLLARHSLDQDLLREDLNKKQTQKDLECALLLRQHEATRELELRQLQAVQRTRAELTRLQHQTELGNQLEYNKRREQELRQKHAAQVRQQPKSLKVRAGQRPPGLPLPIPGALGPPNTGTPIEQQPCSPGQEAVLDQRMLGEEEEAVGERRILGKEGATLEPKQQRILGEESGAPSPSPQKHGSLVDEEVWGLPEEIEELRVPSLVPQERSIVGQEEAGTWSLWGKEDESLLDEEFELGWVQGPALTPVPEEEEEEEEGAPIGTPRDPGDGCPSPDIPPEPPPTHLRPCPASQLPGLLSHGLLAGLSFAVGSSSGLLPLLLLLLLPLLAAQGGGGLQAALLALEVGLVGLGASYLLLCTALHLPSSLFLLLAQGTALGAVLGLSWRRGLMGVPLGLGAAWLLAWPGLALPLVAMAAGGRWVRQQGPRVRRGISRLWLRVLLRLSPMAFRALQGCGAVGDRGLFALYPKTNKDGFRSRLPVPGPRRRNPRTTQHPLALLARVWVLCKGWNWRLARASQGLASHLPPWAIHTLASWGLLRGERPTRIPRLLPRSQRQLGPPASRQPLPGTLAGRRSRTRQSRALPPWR
# TEST PROTOCOL: Probe-based (AX9989) kinase profiling in Jurkat lysate: TAO2
# Assay type: binding
# PARTICULARS: screening concentration 1.0 μM; read-out: Kinase inhibition % at indicated screening concentration: TAO2
# Protocol: In this example, potency of the compounds as ERK5 inhibitors was assessed, and the compounds were screened for activity against several kinases in Jurkat cells. […] Kinase active site peptides were identified and quantified using LC/MS. Percent inhibition was calculated as the normalized decrease in the ESI-MS fragment intensities of probe-labeled peptides in samples incubated with the test compound compared to those without.
MEASURED ATTRIBUTE: inhibition at 1 µM

ITEM SMILES: CCOc1cc(C(=O)O)ccc1Nc1cc2c(cn1)N(C)C(=O)c1ccccc1N2C
OBSERVED MEASUREMENT: ≤ 35%
//
ITEM SMILES: CN(C)CCn1cc(Nc2cc3c(cn2)N(C)C(=O)c2ccccc2N3C)cn1
OBSERVED MEASUREMENT: 35 to 50%
//
ITEM SMILES: CCOc1cc(C(=O)NCCN2CCN(C)CC2)ccc1Nc1cc2c(cn1)N(C)C(=O)c1ccccc1N2C
OBSERVED MEASUREMENT: ≤ 35%
//
ITEM SMILES: CCOc1cc(C(=O)N2CCC(N3CCCC3)CC2)ccc1Nc1cc2c(cn1)N(C)C(=O)c1ccccc1N2C
OBSERVED MEASUREMENT: ≤ 35%
//
ITEM SMILES: CCN(CC)CCNC(=O)c1ccc(OC)c(Nc2cc3c(cn2)N(C)C(=O)c2ccccc2N3C)c1
OBSERVED MEASUREMENT: ≤ 35%
//
ITEM SMILES: CN1C(=O)c2ccccc2N(C)c2cc(NC3CCOCC3)ncc21
OBSERVED MEASUREMENT: ≤ 35%
//
ITEM SMILES: COc1cc(C)c(Nc2cc3c(cn2)N(C)C(=O)c2ccccc2N3C)cn1
OBSERVED MEASUREMENT: ≤ 35%
//
ITEM SMILES: CCOc1cc(C(=O)N2CCNCC2)ccc1Nc1cc2c(cn1)N(C)C(=O)c1ccccc1N2C
OBSERVED MEASUREMENT: ≤ 35%

====

# ASSAYED TARGET: BRPF3 (Homo sapiens)
# Construct: T7 phage strains displaying bromodomains were grown in parallel
# Sequence (Q9ULD4 589-693 limits assumed, species assumed): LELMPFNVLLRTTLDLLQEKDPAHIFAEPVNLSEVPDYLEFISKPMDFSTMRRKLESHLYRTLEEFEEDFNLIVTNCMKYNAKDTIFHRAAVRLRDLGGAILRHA
# TEST PROTOCOL: Bromodomain binding assay: BRPF3
pKd: −log10 of the molar value.

ITEM SMILES: CCOc1cc(C(=O)N2CCC(N3CCCC3)CC2)ccc1Nc1cc2c(cn1)N(C)C(=O)c1ccccc1N2C
pKd: < 4.70
--
ITEM SMILES: CCOc1cc(C(=O)N[C@H]2CC[C@H](O)CC2)ccc1Nc1cc2c(cn1)N(C)C(=O)c1ccccc1N2C
pKd: < 4.70

====

Documented inhibition at 1 µM across a set of compounds
# ASSAYED TARGET: ACK (Homo sapiens)
# Construct: screened for activity against several kinases in Jurkat cells; endogenous in cells; host or cells: Jurkat cell lysate
# Sequence (Q07912 whole entry): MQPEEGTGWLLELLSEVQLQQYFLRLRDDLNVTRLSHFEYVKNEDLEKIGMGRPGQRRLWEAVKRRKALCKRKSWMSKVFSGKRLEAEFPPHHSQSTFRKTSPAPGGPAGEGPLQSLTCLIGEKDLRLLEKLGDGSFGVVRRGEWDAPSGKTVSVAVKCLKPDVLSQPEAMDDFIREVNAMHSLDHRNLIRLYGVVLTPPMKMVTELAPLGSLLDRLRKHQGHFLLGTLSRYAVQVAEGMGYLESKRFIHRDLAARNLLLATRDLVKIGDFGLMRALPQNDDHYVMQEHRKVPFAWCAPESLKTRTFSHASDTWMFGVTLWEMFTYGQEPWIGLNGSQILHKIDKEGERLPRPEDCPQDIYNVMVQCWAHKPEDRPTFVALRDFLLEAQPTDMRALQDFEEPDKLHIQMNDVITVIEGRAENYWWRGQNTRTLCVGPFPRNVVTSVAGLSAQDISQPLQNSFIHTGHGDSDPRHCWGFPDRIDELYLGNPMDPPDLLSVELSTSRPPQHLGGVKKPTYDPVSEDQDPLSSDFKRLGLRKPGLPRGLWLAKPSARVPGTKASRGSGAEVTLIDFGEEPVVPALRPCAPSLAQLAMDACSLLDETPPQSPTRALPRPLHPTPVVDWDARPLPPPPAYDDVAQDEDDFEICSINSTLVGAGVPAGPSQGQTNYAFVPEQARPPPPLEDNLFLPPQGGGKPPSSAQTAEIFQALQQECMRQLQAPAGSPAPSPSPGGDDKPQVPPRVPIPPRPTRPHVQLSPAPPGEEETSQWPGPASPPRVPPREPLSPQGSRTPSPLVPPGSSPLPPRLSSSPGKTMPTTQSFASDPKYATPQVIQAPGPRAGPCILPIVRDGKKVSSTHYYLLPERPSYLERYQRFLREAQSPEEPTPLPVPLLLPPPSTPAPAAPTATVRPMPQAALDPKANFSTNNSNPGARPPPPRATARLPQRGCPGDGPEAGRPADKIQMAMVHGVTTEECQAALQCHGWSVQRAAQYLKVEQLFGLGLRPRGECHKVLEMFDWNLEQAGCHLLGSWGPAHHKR
# TEST PROTOCOL: Probe-based (AX9989) kinase profiling in Jurkat lysate: ACK
# Type: binding
# PARTICULARS: screening concentration 1.0 μM; read-out: Kinase inhibition % at indicated screening concentration: ACK

COMPOUND: CCOc1cc(C(=O)N2CC[C@H](N(C)C)C2)ccc1Nc1cc2c(cn1)N(C)C(=O)c1ccccc1N2C [Compound 75]
inhibition at 1 µM: ≤ 35%

COMPOUND: CCOc1cc(Cl)ccc1Nc1cc2c(cn1)N(C)C(=O)c1ccccc1N2C [Compound 104]
inhibition at 1 µM: ≤ 35%

COMPOUND: COc1cc(C)c(Nc2cc3c(cn2)N(C)C(=O)c2ccccc2N3C)cn1 [Compound 116]
inhibition at 1 µM: ≤ 35%

COMPOUND: CCOc1cc(C(=O)NCCOC)ccc1Nc1cc2c(cn1)N(C)C(=O)c1ccccc1N2C [Compound 83]
inhibition at 1 µM: ≤ 35%

COMPOUND: CCOc1cc(C)ccc1Nc1cc2c(cn1)N(C)C(=O)c1ccccc1N2C [Compound 95]
inhibition at 1 µM: ≤ 35%

COMPOUND: CN1C(=O)c2ccccc2N(C)c2cc(Nc3ccccc3Cl)ncc21 [Compound 86]
inhibition at 1 µM: ≤ 35%

COMPOUND: CN1C(=O)c2ccccc2N(C)c2cc(N[C@H]3CC[C@H](O)CC3)ncc21 [Compound 33]
inhibition at 1 µM: ≤ 35%

COMPOUND: CN1C(=O)C2CCCCC2N(C)c2cc(NC3CCC(N)CC3)ncc21 (centres unmarked) [Compound 97]
inhibition at 1 µM: ≤ 35%

====

Documented EC50 across a set of molecules
# Test system: diseased primary human lung fibroblasts
# TEST PROTOCOL: Cytokine response by primary diseased human lung fibroblasts stimulated with IL-17A or IL-17F
# Type: cell-based
# PARTICULARS: Fibroblast, 48 h, +50 ng/ml IL-17A, read-out: EC50 values (μM), G-CSF
# Method: Primary lung fibroblasts isolated from a patient diagnosed with asthma were obtained from Lonza (Allendale, N.J.) and maintained in FGM-2 fibroblast growth medium (Lonza). […] Supernatant was then collected and analyzed for cytokine concentrations using the Bio-Plex Pro Human Cytokine 17-Plex Panel (Bio-Rad Laboratories, Hercules, Calif.) according to the manufacturer's instructions. […] Data were analyzed via the Bio-Plex Manager software v6.1 (Bio-Rad Laboratories). […]

MOLECULE: CCOc1cc(C(=O)N2CC[C@@H](N(C)C)C2)ccc1Nc1cc2c(cn1)N(C)C(=O)c1ccccc1N2C [Compound 115]
VALUE UNIT: µM
EC50: 0.86
--
MOLECULE: CCOc1cc(C(=O)N2CCC(N3CCN(C)CC3)CC2)ccc1Nc1cc2c(cn1)N(C)C(=O)c1ccccc1N2C [Compound 61]
VALUE UNIT: µM
EC50: 1.99
--
MOLECULE: CCOc1cc(C(=O)N2CCC(N3CCN(C)CC3)CC2)ccc1Nc1cc2c(cn1)N(C)C(=O)c1occc1N2C [Compound 65]
VALUE UNIT: µM
EC50: 3.5

====

# ASSAYED TARGET: TAF1L (Homo sapiens, UniProt Q8IZX4)
# Construct: made in house; host or cells: E. coli host derived from the BL21 strain (T7 phage lysate)
# Sequence (Q8IZX4 1517-1626 limits assumed): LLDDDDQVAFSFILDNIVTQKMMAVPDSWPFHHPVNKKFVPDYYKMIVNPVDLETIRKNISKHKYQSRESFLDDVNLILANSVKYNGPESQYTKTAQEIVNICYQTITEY
# TEST PROTOCOL: Bromodomain binding assay: TAF1L
# PARTICULARS: read-out: Kd for binding to TAF1L
pKd: −log10 of the molar value.
MEASURED ATTRIBUTE: pKd

COMPOUND: CCOc1cc(C(=O)N[C@H]2CC[C@H](O)CC2)ccc1Nc1cc2c(cn1)N(C)C(=O)c1ccccc1N2C [Compound T62]
OBSERVED MEASUREMENT: < 4.70

====

# ASSAYED TARGET: ERK5 (Homo sapiens, UniProt Q13164)
# Construct: screened for activity against several kinases in Jurkat cells; endogenous in cells; host or cells: Jurkat cell lysate
# Sequence (Q13164 whole entry): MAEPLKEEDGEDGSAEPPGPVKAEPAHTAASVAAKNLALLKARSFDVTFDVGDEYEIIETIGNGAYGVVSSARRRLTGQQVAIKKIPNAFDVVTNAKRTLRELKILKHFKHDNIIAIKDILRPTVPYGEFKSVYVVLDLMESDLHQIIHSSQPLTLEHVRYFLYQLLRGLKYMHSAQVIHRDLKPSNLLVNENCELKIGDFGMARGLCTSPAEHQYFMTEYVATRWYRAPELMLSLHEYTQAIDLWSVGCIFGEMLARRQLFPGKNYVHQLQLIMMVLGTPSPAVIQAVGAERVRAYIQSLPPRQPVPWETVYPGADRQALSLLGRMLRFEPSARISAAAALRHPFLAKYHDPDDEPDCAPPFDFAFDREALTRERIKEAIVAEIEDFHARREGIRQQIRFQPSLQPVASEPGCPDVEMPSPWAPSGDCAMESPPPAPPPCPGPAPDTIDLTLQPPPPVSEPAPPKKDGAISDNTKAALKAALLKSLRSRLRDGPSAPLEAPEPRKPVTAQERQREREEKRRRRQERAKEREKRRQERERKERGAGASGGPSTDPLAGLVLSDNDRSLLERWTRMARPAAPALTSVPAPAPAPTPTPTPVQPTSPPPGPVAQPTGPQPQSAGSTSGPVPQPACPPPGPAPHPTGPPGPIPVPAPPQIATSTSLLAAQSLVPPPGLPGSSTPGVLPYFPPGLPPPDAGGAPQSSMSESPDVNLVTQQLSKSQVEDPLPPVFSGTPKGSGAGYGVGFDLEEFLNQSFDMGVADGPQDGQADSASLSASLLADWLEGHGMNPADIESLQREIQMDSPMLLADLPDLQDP
# TEST PROTOCOL: Probe-based (AX9989 acyl phosphate ATP probe) kinase profiling in Jurkat lysate: ERK5
# Assay type: binding
# PARTICULARS: calculated from percent inhibition of AX9989 labeling and the screening concentration; Jurkat lysate
MEASURED ATTRIBUTE: IC50

MOLECULE: COc1cc(NS(C)(=O)=O)ccc1Nc1cc2c(cn1)N(C)C(=O)c1ccccc1N2C
OBSERVED MEASUREMENT: 101 to 500 nM

MOLECULE: CCOc1cc(C(=O)N2CC[C@@H](N(C)C)C2)ccc1Nc1cc2c(cn1)N(C)C(=O)c1ccccc1N2C
OBSERVED MEASUREMENT: ≤ 50 nM

MOLECULE: CN1C(=O)C2CCCCC2N(C)c2cc(NC3CCC(N)CC3)ncc21 (stereo not drawn)
OBSERVED MEASUREMENT: > 500 nM

MOLECULE: CN1C(=O)c2ccccc2N(C)c2cc(Nc3ccccc3Cl)ncc21
OBSERVED MEASUREMENT: > 500 nM

MOLECULE: CCOc1cc(C(=O)NCCOC)ccc1Nc1cc2c(cn1)N(C)C(=O)c1ccccc1N2C
OBSERVED MEASUREMENT: 101 to 500 nM

MOLECULE: CN1C(=O)c2ccccc2N(C)c2cc(N[C@H]3CC[C@H](NC(=O)N4CCCC4)CC3)ncc21
OBSERVED MEASUREMENT: 101 to 500 nM

MOLECULE: CCOc1cc(C(=O)N2CCN(CCO)CC2)ccc1Nc1cc2c(cn1)N(C)C(=O)c1ccccc1N2C
OBSERVED MEASUREMENT: ≤ 50 nM

MOLECULE: CCOc1cc(C(=O)NC2CCC(O)CC2)ccc1Nc1cc2c(cn1)N(C)C(=O)c1ccccc1N2C (stereo not drawn)
OBSERVED MEASUREMENT: > 500 nM

MOLECULE: COc1cc(C)c(Nc2cc3c(cn2)N(C)C(=O)c2ccccc2N3C)cn1
OBSERVED MEASUREMENT: > 500 nM

MOLECULE: Cc1cc(CN2CCCC2)ccc1Nc1cc2c(cn1)N(C)C(=O)c1ccccc1N2C
OBSERVED MEASUREMENT: ≤ 50 nM

MOLECULE: CCOc1cc(C(=O)N(C)CCN2CCCC2)ccc1Nc1cc2c(cn1)N(C)C(=O)c1ccccc1N2C
OBSERVED MEASUREMENT: 50 to 100 nM

MOLECULE: CCOc1ccccc1Nc1cc2c(cn1)N(C)C(=O)c1ccccc1N2C
OBSERVED MEASUREMENT: > 500 nM

MOLECULE: CCOc1cc(C(=O)N2CCC(N3CCCC3)C2)ccc1Nc1cc2c(cn1)N(C)C(=O)c1occc1N2C (stereo not drawn)
OBSERVED MEASUREMENT: ≤ 50 nM

MOLECULE: CCOc1cc(C(=O)N2CCN(CC3CC3)CC2)ccc1Nc1cc2c(cn1)N(C)C(=O)c1ccccc1N2C
OBSERVED MEASUREMENT: ≤ 50 nM

MOLECULE: CN1C(=O)C2CCCCC2N(C)c2cc(NC3CCC(O)CC3)ncc21 (stereo not drawn)
OBSERVED MEASUREMENT: > 500 nM

MOLECULE: CN1C(=O)c2ccccc2N(C)c2cc(NC3CCC(C(=O)NC4CCOCC4)CC3)ncc21 (stereo not drawn)
OBSERVED MEASUREMENT: 101 to 500 nM

MOLECULE: CN1C(=O)c2ccccc2N(C)c2cc(Nc3ccc(N4CCC(O)CC4)cn3)ncc21
OBSERVED MEASUREMENT: > 500 nM

MOLECULE: CCOc1cc(C(=O)N2CCC(NC3CC3)C2)ccc1Nc1cc2c(cn1)N(C)C(=O)c1ccccc1N2C (stereo not drawn)
OBSERVED MEASUREMENT: ≤ 50 nM

MOLECULE: CCOc1cc(C(=O)NCCN2CCOCC2)ccc1Nc1cc2c(cn1)N(C)C(=O)c1ccccc1N2C
OBSERVED MEASUREMENT: 101 to 500 nM

MOLECULE: Cc1cc(CN2CC[C@@H](N3CCCC3)C2)ccc1Nc1cc2c(cn1)N(C)C(=O)c1ccccc1N2C
OBSERVED MEASUREMENT: ≤ 50 nM

MOLECULE: Cc1cc(C#N)ccc1Nc1cc2c(cn1)N(C)C(=O)c1ccccc1N2C
OBSERVED MEASUREMENT: 101 to 500 nM

MOLECULE: CCOc1cc(C(=O)N2CCNC[C@@H]2C)ccc1Nc1cc2c(cn1)N(C)C(=O)c1ccccc1N2C
OBSERVED MEASUREMENT: ≤ 50 nM

MOLECULE: CCOc1cc(C(=O)NCCOCCO)ccc1Nc1cc2c(cn1)N(C)C(=O)c1ccccc1N2C
OBSERVED MEASUREMENT: 101 to 500 nM

MOLECULE: Cc1ccccc1Nc1cc2c(cn1)N(C)C(=O)c1ccccc1N2C
OBSERVED MEASUREMENT: > 500 nM

MOLECULE: Cc1cc(C(=O)N2CC[C@@H](N(C)C)C2)ccc1Nc1cc2c(cn1)N(C)C(=O)c1ccccc1N2C
OBSERVED MEASUREMENT: ≤ 50 nM

MOLECULE: CCOc1cc(C(=O)N2CCC(N3CCN(C)CC3)CC2)ccc1Nc1cc2c(cn1)N(C)C(=O)c1ncccc1N2C
OBSERVED MEASUREMENT: ≤ 50 nM

MOLECULE: CCOc1cc(C(=O)NCCN(C(C)C)C(C)C)ccc1Nc1cc2c(cn1)N(C)C(=O)c1ccccc1N2C
OBSERVED MEASUREMENT: ≤ 50 nM

MOLECULE: CCOc1cc(C(=O)N2CC[C@H](N(C)C)C2)ccc1Nc1cc2c(cn1)N(C)C(=O)c1ccccc1N2C
OBSERVED MEASUREMENT: ≤ 50 nM

MOLECULE: CCOc1cc(C(=O)N2CCNC[C@H]2C)ccc1Nc1cc2c(cn1)N(C)C(=O)c1ccccc1N2C
OBSERVED MEASUREMENT: ≤ 50 nM

MOLECULE: CCOc1cc(C(=O)N2CCCNCC2)ccc1Nc1cc2c(cn1)N(C)C(=O)c1ccccc1N2C
OBSERVED MEASUREMENT: ≤ 50 nM

MOLECULE: CCOc1cc(C(=O)N2CCC(c3c[nH]cn3)CC2)ccc1Nc1cc2c(cn1)N(C)C(=O)c1ccccc1N2C
OBSERVED MEASUREMENT: 101 to 500 nM

MOLECULE: CCOc1cc(C(=O)N2CC[C@@H](N3CCCC3)C2)ccc1Nc1cc2c(cn1)N(C)C(=O)c1ccccc1N2C
OBSERVED MEASUREMENT: ≤ 50 nM

MOLECULE: CCN(CC)CCNC(=O)c1cccc(Nc2cc3c(cn2)N(C)C(=O)c2ccccc2N3C)c1OC
OBSERVED MEASUREMENT: 101 to 500 nM
